Experiment: Pharmacokinetic evaluation in Fischer 344 rats
Type: in vivo, rat
Settings: male, Fischer 344, rat, plasma; intravenous 0.25 mg/kg; read-out: Cmax
endpoint label: Cmax (ng/mL)
Please give a number only; it is taken to be in ng/mL.

Please fill in: Cmax reported for CCCC[C@H]1C(=O)OC(C)[C@H](NC(=O)c2cccc(NC=O)c2OC)C(=O)O[C@@H](C)C1OC(=O)CC(C)C (stereo partly shown) [2-OMeA3, Antimycin A3 methyl ether] = 920

----------
Test system: plasma proteins
Assay: Binding to plasma proteins (ultrafiltration)
Format: in vitro ADME, dog
Details: presence of NaF+EDTA, 1000 ng/ml
endpoint label: Protein binding, Dog (%)
Please give a number only; it is taken to be in %.

Take a look at these entries with their results.
{"compound": "CCCCCC[C@H]1C(=O)O[C@H](C)[C@H](NC(=O)c2cccc(NC=O)c2OC)C(=O)O[C@@H](C)[C@@H]1OC(=O)CC(C)C [2-OMeA1, 2-methoxy antimycin A1]", "endpoint label": "Protein binding, Dog", "observed": 99.8}
{"compound": "CC[C@H]1C(=O)O[C@H](C)[C@H](NC(=O)c2cccc(NC=O)c2OC)C(=O)O[C@@H](C)[C@@H]1OC(=O)CC(C)C [2-OMeA5, 2-OMe antimycin A5]", "endpoint label": "Protein binding, Dog", "observed": 99.1}
{"compound": "CCCCCC[C@H]1C(=O)O[C@H](C)[C@H](NC(=O)c2cccc(NC=O)c2OC)C(=O)O[C@@H](C)[C@@H]1OC(=O)CCC [2-OMeA2, 2-methoxy antimycin A2]", "endpoint label": "Protein binding, Dog", "observed": 99.9}

Please fill in: Protein binding, Dog reported for CCCC[C@H]1C(=O)OC(C)[C@H](NC(=O)c2cccc(NC=O)c2OC)C(=O)O[C@@H](C)C1OC(=O)CC(C)C (stereo partly shown) [2-OMeA3, Antimycin A3 methyl ether] = 99.3

----------
Target: Bcl-xL(ΔC) E92L (Homo sapiens, UniProt Q07817, E92L)
Construct: inferred from Ni-NTA purification and the pET22b(+) NdeI/XhoI cloning)
Sequence (Q07817 1-211 E92L limits assumed): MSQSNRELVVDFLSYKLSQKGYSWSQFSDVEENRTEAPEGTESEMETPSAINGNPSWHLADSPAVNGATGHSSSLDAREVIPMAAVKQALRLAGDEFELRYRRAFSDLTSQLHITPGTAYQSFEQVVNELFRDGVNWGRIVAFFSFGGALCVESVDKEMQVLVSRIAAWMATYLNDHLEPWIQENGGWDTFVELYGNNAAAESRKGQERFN
Assay: Fluorescence anisotropy binding
Details: AA1 200 nM or FITC-labeled BH3 peptide 25 nM; read-out: Dissociation Constant KD
Method: A pET22b (Novagen) vector coding for BCl-xL(ΔC), a mutant Bcl-xL protein without the COOH terminal region, was transformed into Escherichia coli BL21(DE3) cells that carried pUB520 (encoding human Arg tRNA) and grown to an A600 of 0.6. Protein expression was induced with 0.1 mM isopropyl β-D-thiogalactoside at 30° C. […]
endpoint label: pKd
The value called pKd is obtained by taking minus log10 of the concentration in mol/L.

Please fill in: pKd reported for CCCCCC[C@H]1C(=O)O[C@H](C)[C@H](NC(=O)c2cccc(NC=O)c2O)C(=O)O[C@@H](C)[C@@H]1OC(=O)CC(C)C [antimycin A1] = 5.30

----------
Assay: Pharmacokinetic evaluation in Fischer 344 rats
Assay type: in vivo, rat
Conditions: male, Fischer 344, rat, plasma; intravenous 0.25 mg/kg; read-out: Vss
endpoint label: Vd
Quick note: unit goes after the number.

Please fill in: Vd reported for CCCC[C@H]1C(=O)OC(C)[C@H](NC(=O)c2cccc(NC=O)c2OC)C(=O)O[C@@H](C)C1OC(=O)CC(C)C (stereo partly shown) [2-OMeA3, Antimycin A3 methyl ether] = 0.37 L/kg
